Origin of the recorded values: patent US8951993B2

Target system: ALK mutant F1174L (Homo sapiens, UniProt Q9UM73, F1174L)
Construct: purchased Carna Biosciences (Chuo-ku, Kobe, Japan)
Sequence (Q9UM73 19-1620 F1174L): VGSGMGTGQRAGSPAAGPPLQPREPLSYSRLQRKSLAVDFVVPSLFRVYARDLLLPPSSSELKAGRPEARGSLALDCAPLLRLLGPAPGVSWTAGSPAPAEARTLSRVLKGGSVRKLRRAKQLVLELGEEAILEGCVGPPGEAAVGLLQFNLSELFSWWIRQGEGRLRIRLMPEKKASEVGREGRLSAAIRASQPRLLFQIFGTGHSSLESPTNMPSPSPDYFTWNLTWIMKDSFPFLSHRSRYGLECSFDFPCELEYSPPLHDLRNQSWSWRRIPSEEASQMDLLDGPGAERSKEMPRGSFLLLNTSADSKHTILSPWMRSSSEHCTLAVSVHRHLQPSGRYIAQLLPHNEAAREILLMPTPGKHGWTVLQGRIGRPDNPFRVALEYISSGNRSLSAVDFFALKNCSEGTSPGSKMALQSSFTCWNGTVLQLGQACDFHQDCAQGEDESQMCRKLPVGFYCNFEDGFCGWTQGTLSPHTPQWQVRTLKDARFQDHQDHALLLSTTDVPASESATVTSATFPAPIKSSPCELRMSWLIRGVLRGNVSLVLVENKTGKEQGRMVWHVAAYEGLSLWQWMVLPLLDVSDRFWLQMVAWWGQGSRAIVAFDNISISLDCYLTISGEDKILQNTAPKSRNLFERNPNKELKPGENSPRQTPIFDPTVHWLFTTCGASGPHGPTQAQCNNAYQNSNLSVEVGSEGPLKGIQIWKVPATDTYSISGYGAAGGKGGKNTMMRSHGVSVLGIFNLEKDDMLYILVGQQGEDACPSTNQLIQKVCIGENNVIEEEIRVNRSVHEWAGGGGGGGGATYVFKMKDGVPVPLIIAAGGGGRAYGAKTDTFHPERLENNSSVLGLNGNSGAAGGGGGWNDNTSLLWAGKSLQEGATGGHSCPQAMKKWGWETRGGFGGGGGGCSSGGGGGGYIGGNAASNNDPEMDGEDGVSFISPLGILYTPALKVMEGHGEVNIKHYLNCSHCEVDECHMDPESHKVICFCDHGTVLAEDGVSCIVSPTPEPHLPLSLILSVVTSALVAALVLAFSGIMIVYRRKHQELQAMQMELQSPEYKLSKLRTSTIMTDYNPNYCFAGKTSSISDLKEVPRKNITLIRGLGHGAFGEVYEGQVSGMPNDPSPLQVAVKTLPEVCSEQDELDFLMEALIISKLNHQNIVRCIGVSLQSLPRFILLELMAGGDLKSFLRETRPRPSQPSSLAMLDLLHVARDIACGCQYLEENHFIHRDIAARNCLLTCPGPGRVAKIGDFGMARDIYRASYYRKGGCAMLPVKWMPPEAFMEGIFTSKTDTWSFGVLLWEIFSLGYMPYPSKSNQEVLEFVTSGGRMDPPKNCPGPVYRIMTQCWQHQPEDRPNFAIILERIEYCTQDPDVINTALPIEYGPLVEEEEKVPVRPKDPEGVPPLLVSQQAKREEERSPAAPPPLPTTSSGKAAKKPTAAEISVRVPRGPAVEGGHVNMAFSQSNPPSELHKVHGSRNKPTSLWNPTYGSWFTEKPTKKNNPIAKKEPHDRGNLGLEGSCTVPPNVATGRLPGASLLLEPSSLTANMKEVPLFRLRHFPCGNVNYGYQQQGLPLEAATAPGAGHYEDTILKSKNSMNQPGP
Experimental details: Off-chip mobility shift assay (Carna Biosciences), ALK F1174L
Format: biochemical
Particulars: footnote #: F1174L; read-out: IC50 ALK Kinase (# mutant F1174L)
pIC50: −log10 of the molar value.
Each entry below lists one item and its recorded pIC50 value.

Short answer for C[C@@H](Oc1cc(-c2ccc(P(C)(C)=O)cc2F)cnc1N)c1c(Cl)ccc(F)c1Cl : pIC50 was > 7.00

Short answer for COc1cc(P(C)(C)=O)ccc1-c1cnc(N)c(O[C@H](C)c2c(Cl)ccc(F)c2Cl)c1 : pIC50 was > 7.00

====

Each entry below lists one item and its recorded IC50 value.
Target system: NPM1-ALK (Homo sapiens, UniProt Q9UM73)
Construct: purchased Carna Biosciences (Chuo-ku, Kobe, Japan); the other entry of the earlier key: NPM1 (P06748, Nucleophosmin)
Sequence (Q9UM73 with tags, fused parts or gaps): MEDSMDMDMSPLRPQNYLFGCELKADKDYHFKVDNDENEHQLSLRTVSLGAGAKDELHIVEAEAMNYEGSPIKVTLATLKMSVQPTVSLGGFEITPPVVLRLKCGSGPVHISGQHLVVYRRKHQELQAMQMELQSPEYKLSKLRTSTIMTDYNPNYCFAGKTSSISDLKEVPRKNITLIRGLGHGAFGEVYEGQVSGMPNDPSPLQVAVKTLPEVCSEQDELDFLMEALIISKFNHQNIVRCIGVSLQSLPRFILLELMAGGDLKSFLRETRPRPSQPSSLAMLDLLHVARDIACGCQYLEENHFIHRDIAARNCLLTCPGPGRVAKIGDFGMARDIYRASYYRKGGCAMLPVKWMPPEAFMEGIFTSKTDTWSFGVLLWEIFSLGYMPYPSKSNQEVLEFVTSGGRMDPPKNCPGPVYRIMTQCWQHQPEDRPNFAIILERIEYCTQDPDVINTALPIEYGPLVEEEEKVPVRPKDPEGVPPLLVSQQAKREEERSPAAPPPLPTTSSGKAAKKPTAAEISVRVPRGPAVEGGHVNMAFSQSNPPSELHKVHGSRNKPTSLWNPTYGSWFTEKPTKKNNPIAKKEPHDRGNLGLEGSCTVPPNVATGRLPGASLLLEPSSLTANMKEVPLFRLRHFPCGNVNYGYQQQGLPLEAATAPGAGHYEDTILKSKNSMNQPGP
Experimental details: Off-chip mobility shift assay (Carna Biosciences), NPM1-ALK
Type: biochemical
Particulars: footnote #: NPM1-ALK; read-out: IC50 ALK Kinase (# NPM1-ALK)

Short answer for COc1cc(P(C)(C)=O)ccc1-c1cnc(N)c(O[C@H](C)c2c(Cl)ccc(F)c2Cl)c1 : IC50 was < 100 nM

For the next question, use this compound.
Short answer for C[C@@H](Oc1cc(-c2ccc(P(C)(C)=O)cc2F)cnc1N)c1c(Cl)ccc(F)c1Cl : IC50 was < 100 nM

====

Target system: ALK (Homo sapiens)
Sequence (Q9UM73 1058-1620 limits assumed): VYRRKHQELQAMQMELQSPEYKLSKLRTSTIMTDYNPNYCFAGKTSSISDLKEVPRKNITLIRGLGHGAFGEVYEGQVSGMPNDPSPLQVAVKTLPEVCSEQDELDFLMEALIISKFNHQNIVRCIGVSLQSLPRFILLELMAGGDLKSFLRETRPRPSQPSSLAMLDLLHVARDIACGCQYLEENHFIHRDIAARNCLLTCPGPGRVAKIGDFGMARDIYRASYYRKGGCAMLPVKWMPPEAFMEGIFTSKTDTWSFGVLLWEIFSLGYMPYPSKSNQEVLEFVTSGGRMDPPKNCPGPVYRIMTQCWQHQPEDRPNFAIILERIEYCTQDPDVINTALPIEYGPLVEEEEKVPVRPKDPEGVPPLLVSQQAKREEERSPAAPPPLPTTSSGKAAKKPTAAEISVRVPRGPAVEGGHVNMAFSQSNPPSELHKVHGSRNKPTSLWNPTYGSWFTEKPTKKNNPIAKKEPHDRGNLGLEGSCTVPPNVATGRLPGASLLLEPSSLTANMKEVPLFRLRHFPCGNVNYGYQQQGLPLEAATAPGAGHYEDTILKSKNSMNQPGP
Experimental details: Inhibition of ALK phosphorylation (sandwich ELISA, pY1604), cell line not given
Format: cell-based
Parameters: fused on or other part: Q9HC35 (Echinoderm microtubule-associated protein-like 4)
Particulars: 1 hour, serum-free
Reported metric: IC50

// solved cases for IC50 follow
Short answer for C[C@@H](Oc1cc(-c2ccc(P(C)(C)=O)cc2F)cnc1N)c1c(Cl)ccc(F)c1Cl [Example 25] : IC50 was < 50 nM

Short answer for COc1cc(P(C)(C)=O)ccc1-c1cnc(N)c(O[C@H](C)c2c(Cl)ccc(F)c2Cl)c1 [Example 24] : IC50 was < 50 nM

Short answer for C[C@@H](Oc1cc(-c2ccc(P(C)(C)=O)cc2)cnc1N)c1c(Cl)ccc(F)c1Cl [Example 23] : IC50 was < 50 nM

Short answer for CC(Oc1cc(-c2cnn(C3CCN(CP(C)(C)=O)CC3)c2)cnc1N)c1c(Cl)ccc(F)c1Cl (centres unmarked) [Example 2] : IC50 was < 500 nM

Others:
Short answer for CC(Oc1cc(-c2ccc(P(C)(C)=O)cc2)cnc1N)c1c(Cl)ccc(F)c1Cl (centres unmarked) [Example 1] : IC50 was < 500 nM

====

Experimental details: Pharmacokinetic assay, intravenous and oral administration
Format: in vivo, Sprague-Dawley rats or beagle dogs
Particulars: plasma; after oral administration in rats or dogs
Each entry below lists one item and its recorded half-life value.

// solved cases for half-life follow
Short answer for CC(Oc1cc(-c2ccc(P(C)(C)=O)cc2)cnc1N)c1c(Cl)ccc(F)c1Cl (stereo not drawn) [Example 1] : half-life was > 3 h

Short answer for CC(Oc1cc(-c2ccc(P(C)(C)=O)cc2F)cnc1N)c1c(Cl)ccc(F)c1Cl (stereo not drawn) [Example 13] : half-life was > 3 h

For the next question, use this compound.
Short answer for COc1cc(P(C)(C)=O)ccc1-c1cnc(N)c(OC(C)c2c(Cl)ccc(F)c2Cl)c1 (stereo not drawn) [Example 8] : half-life was > 3 h
